# assayDetails: Short-term plasma stability with and without esterase inhibitors
# conditionDescription: human, pH 7.4, Parent Compound Remaining (%), Esterase Inhibitors, 3 h, 37 °C, pH 7.4, BNPP and PMSF 500 µM each
The following molecules are shown together with reported remaining at 3 h, 5 µM values.

Below are worked cases with known answers.
C=CCCCn1cc(C(=O)N[C@H](C(=O)OC)C(C)C)c2ccccc21 [(S)-AMB-4en-PICA (7)]; 95.6%
COC(=O)[C@@H](NC(=O)c1nn(CCCCCF)c2ccccc12)C(C)(C)C [(S)-5F-MDMB-PINACA (2)]; 97%
COC(=O)[C@@H](NC(=O)c1nn(Cc2ccc(F)cc2)c2ccccc12)C(C)C [(S)-AMB-FUBINACA (1)]; 96.1%

Next item in the queue.
Exam item: Could you please provide reported remaining at 3 h, 5 µM for COC(=O)[C@@H](NC(=O)c1nn(Cc2ccc(F)cc2)c2ccccc12)C(C)(C)C [(S)-MDMB-FUBINACA (6)] ? Thanks!
Marked response: 91.6%

---

# % parent compound remaining, Average values compiled below
# Tested on: pooled human cryopreserved hepatocytes (pHHeps)
# assayDetails: Metabolic stability, pooled human cryopreserved hepatocyte incubations
# conditionDescription: pHHeps, 6 min
State just the number; it will be interpreted in %.

COC(=O)C(NC(=O)c1nn(Cc2ccc(F)cc2)c2ccccc12)C(C)C (stereo in doubt) [(R)-AMB-FUBINACA (1)]; 22.5
COC(=O)[C@@H](NC(=O)c1cn(CC2CCCCC2)c2ccccc12)C(C)C [(S)-AMB-CHMICA (9)]; 58.4
CC(C)[C@@H](NC(=O)c1nn(Cc2ccc(F)cc2)c2ccccc12)C(N)=O [(R)-AB-FUBINACA (8)]; 86.5
C=CCCCn1cc(C(=O)N[C@H](C(=O)OC)C(C)C)c2ccccc21 [(S)-AMB-4en-PICA (7)]; 54.6
O=c1ccc2ccc(O)cc2o1 [7-hydroxycoumarin, reference compound]; 97.5
COC(=O)C(NC(=O)c1nn(CCCCCF)c2ccccc12)C(C)C (stereo in doubt) [(R)-5F-AMB-PINACA (10)]; 35.6

Exam item: Give the reported % parent compound remaining, Average for this compound. CCOc1ccc2ccc(=O)oc2c1 [7-ethoxycoumarin, reference compound]
Marked response: 89.4

Exam item: # return recorded % parent compound remaining, Average for input COC(=O)[C@@H](NC(=O)c1nn(CCCCF)c2ccccc12)C(C)(C)C [(S)-4F-MDMB-BINACA (4)]
Marked response: 73.7

Exam item: Look up % parent compound remaining, Average of COC(=O)C(NC(=O)c1cn(CC2CCCCC2)c2ccccc12)C(C)C (stereo in doubt) [(R)-AMB-CHMICA (9)] and report it.
Marked response: 61.2

Exam item: Return % parent compound remaining, Average (reported value) for this compound: COC(=O)[C@@H](NC(=O)c1nn(CCCCCF)c2ccccc12)C(C)C [(S)-5F-AMB-PINACA (10)]
Marked response: 23.2

Exam item: Using known records, supply % parent compound remaining, Average for C=CCCCn1nc(C(=O)N[C@@H](C(=O)OC)C(C)(C)C)c2ccccc21 [(R)-MDMB-4en-PINACA (5)]
Marked response: 77.7

---

# assayDetails: Metabolic stability, pooled human liver microsome incubations
# conditionDescription: pHLM, scaling factor 32 mg microsomal protein per gram liver
Reported Hepatic extraction ratio, EH values follow for various compounds

Known Hepatic extraction ratio, EH results, listed for orientation:
COC(=O)[C@@H](NC(=O)c1nn(CCCCCF)c2ccccc12)C(C)(C)C [(S)-5F-MDMB-PINACA (2)]; 0.15 ± 0.006
COC(=O)[C@@H](NC(=O)c1nn(Cc2ccc(F)cc2)c2ccccc12)C(C)C [(S)-AMB-FUBINACA (1)]; 0.62 ± 0.008
CC(C)[C@H](NC(=O)c1nn(CC2CCCCC2)c2ccccc12)C(N)=O [(S)-AB-[…] (11)]; 0.05 ± 0.005
COC(=O)[C@H](NC(=O)c1cn(CCCCCF)c2ccccc12)C(C)(C)C [(R)-5F-MDMB-PICA (3)]; 0.24 ± 0.002
COC(=O)[C@@H](NC(=O)c1nn(Cc2ccc(F)cc2)c2ccccc12)C(C)(C)C [(S)-MDMB-FUBINACA (6)]; 0.03 ± 0.006
COC(=O)[C@@H](NC(=O)c1cn(CC2CCCCC2)c2ccccc12)C(C)C [(S)-AMB-CHMICA (9)]; 0.14 ± 0.024
COC(=O)[C@H](NC(=O)c1nn(CCCCF)c2ccccc12)C(C)(C)C [(R)-4F-MDMB-BINACA (4)]; 0.30 ± 0.010

From here, focus on the item given below.
Exam item: Query Hepatic extraction ratio, EH for C=CCCCn1cc(C(=O)N[C@@H](C(=O)OC)C(C)(C)C)c2ccccc21 [(R)-MDMB-4en-PICA (12)]
Marked response: 0.35 ± 0.033
